As shown below, each of these molecules has a reported Ratio value.
# STUDY_SYSTEM: Beta-lactamase AH27 CTX-M-15 (Klebsiella pneumoniae)
# METHOD: Ratio of Kcat to Km for Klebsiella pneumoniae AH27 CTX-M-15 beta-lactamase
# Parameters: unit not given here
# print the numeric value only

Some entries whose results are on file:
- STRUCTURE_NOTATION: "O=C(Cc1cccs1)N[C@@H]1C(=O)N2C(C(=O)[O-])=C(C[n+]3ccccc3)CS[C@H]12"
  Ratio: 4.82
- STRUCTURE_NOTATION: "CC1(C)S[C@@H]2[C@H](NC(=O)Cc3ccccc3)C(=O)N2[C@H]1C(=O)O"
  Ratio: 5.4
- STRUCTURE_NOTATION: "CO/N=C(\\C(=O)N[C@@H]1C(=O)N2C(C(=O)O)=C(COC(C)=O)CS[C@H]12)c1csc(N)n1"
  Ratio: 6.77
- STRUCTURE_NOTATION: "CO/N=C(\\C(=O)N[C@@H]1C(=O)N2C(C(=O)O)=C(COC(N)=O)CS[C@H]12)c1ccco1"
  Ratio: 0.25

Sample CC(C)(O/N=C(\C(=O)N[C@@H]1C(=O)N2C(C(=O)[O-])=C(C[n+]3ccccc3)CS[C@H]12)c1csc(N)n1)C(=O)O ; Ratio observed: 0.0186

* * *

# STUDY_SYSTEM: Extended spectrum beta-lactamase CTX-M-71 (Klebsiella pneumoniae)
# METHOD: Ratio of Kcat to Km for Klebsiella pneumoniae AH24-270 CTX-M-71 beta-lactamase
# Parameters: unit not given here
Mark condition not met for Ratio values under 0.5, and condition met for everything at or above.

- STRUCTURE_NOTATION: "CC1(C)S[C@@H]2[C@H](NC(=O)[C@H](N)c3ccc(O)cc3)C(=O)N2[C@H]1C(=O)O"
  CATEGORY_LABEL: "condition met"
- STRUCTURE_NOTATION: "CO/N=C(\\C(=O)N[C@@H]1C(=O)N2C(C(=O)O)=C(COC(N)=O)CS[C@H]12)c1ccco1"
  CATEGORY_LABEL: "condition not met"
- STRUCTURE_NOTATION: "CCN1CCN(C(=O)N[C@@H](C(=O)N[C@@H]2C(=O)N3[C@@H]2SC(C)(C)[C@@H]3C(=O)O)c2ccccc2)C(=O)C1=O"
  CATEGORY_LABEL: "condition met"
- STRUCTURE_NOTATION: "C[C@H]1[C@H](NC(=O)/C(=N\\OC(C)(C)C(=O)O)c2csc(N)n2)C(=O)N1S(=O)(=O)O"
  CATEGORY_LABEL: "condition not met"

QUERY: Ratio >= 0.5 for CC(C)(O/N=C(\C(=O)N[C@@H]1C(=O)N2C(C(=O)[O-])=C(C[n+]3ccccc3)CS[C@H]12)c1csc(N)n1)C(=O)O ?
RESULT: condition not met

QUERY: Ratio >= 0.5 for O=C(Cc1cccs1)N[C@@H]1C(=O)N2C(C(=O)[O-])=C(C[n+]3ccccc3)CS[C@H]12 ?
RESULT: condition met

QUERY: Ratio >= 0.5 for CC1(C)S[C@@H]2[C@H](NC(=O)Cc3ccccc3)C(=O)N2[C@H]1C(=O)O ?
RESULT: condition met
